Recorded values, source patent US20210380703A1.

# SYSTEM: Mouse ACVR2A (mouse, UniProt P27038 20-135, limits assumed); also: test concentration or dose not given here
# Sequence (P27038 20-135 limits assumed): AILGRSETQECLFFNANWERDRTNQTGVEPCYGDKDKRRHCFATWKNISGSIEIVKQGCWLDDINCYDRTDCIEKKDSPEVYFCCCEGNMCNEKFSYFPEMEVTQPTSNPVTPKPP
# PROTOCOL_DETAILS: ELISA
Exercise: for every item that follows, state its recorded optical density.
Numbers only here, please. The scale is OD.

Req: Give optical density for 366_G09 (antibody, V domains shown, VH/VL only) VH: EVQLLESGGGLVQPGGSLRLSCAASGFTFDDYSMNWVRQAPGKGLEWVASINYNSGYTGYADSVKGRFTISRDNSKNTLYLQMNSLRAEDTAVYYCARGATWHDTHLDYWGQGTLVTVSS VL: DIQMTQSPSSLSASVGDRVTITCRASQSILSYVNWYQQKPGKAPKLVIYAATSRASGVPSRFSGSGSGTDFTLTISSLQPEDFATYYCQQSYDLPLTFGGGTKVEIK
Resp: 2.04

Req: Give optical density for 369_F09 (antibody, V domains shown, VH/VL only) VH: EVQLLESGGGLVQPGGSLRLSCAASGFTFSSYGMHWVRQAPGKGLEWVAGINYNGGYTSYADSVKGRFTISRDNSKNTLYLQMNSLRAEDTAVYYCARGATWHDTHLDYWGQGTLVTVSS VL: DIQMTQSPSSLSASVGDRVTITCRASQSILTYVNWYQQKPGKAPKLLIYAATSRASGVPSRFSGSGSGTDFTLTISSLQPEDFATYYCQQSYDSPLTFGGGTKVEIK
Resp: 3.38

Req: Give optical density for 373_F07 (antibody, V domains shown, VH/VL only) VH: EVQLLESGGGLVQPGGSLRLSCAASGFTFSSYSMNWVRQAPGKGLEWVSGINYNSGYKSYADSVKGRFTISRDNSKNTLYLQMNSLRAEDTAVYYCARGATWHDTHLDYWGQGTLVTVSS VL: DIQMTQSPSSLSASVGDRVTITCRASQSILSYLNWYQQKPGKAPKLLIYAATSLASGVPSRFSGSGSGTDFTLTISSLQPEDFATYYCQQSYETPLTFGGGTKVEIK
Resp: 3.62
